Test Target: recombinant human TGR5 (Homo sapiens, UniProt Q8TDU6)
Protocol Notes: cAMP assay (cAMP accumulation, HTRF) in CHOK1 cells stably expressing TGR5
Experimental Conditions: CHOK1 cells stably expressing human TGR5, 30 minutes at RT, 1% DMSO
pEC50: −log10 of the molar value.
Observable: pEC50

[a] Cc1cccc(OCCCC(=O)N2CC3CC3c3c(-c4cnn(Cc5c(F)cc(C(=O)NCCC[C@H](NC(=N)N)C(=O)O)cc5Cl)c4)cccc32)c1C (stereo partly shown) [Example 69F]
[b] Cc1cccc(OCCCC(=O)N2CCCc3c(-c4cnn(Cc5cccc(S(=O)(=O)N[C@@H](CCC[N+](C)(C)C)C(=O)O)c5)c4)cccc32)c1C
Identify the item whose pEC50 is the smaller number: a or b Indicate your choice by writing its label.
b
(b: 5.68, a: 7.27)

[I] Cc1cccc(OCCCC(=O)N2CC3CC3c3c(-c4cnn(Cc5c(F)cc(C(=O)NCCS(=O)(=O)O)cc5Cl)c4)cccc32)c1C (stereo not shown) [Example 69C]
[II] Cc1cccc(OCCCC(=O)N2CCCOc3c(-c4cnn(Cc5ccc(C(=O)NCCC(=O)O)cc5)c4)cccc32)c1C
[III] Cc1cccc(OCCCC(=O)N2CCCOc3c(-c4cnn(Cc5c(F)cc(C(=O)O)cc5Cl)c4)cccc32)c1C
[IV] Cc1cccc(OCCCC(=O)N2CCCc3c(-c4cccc(COC(=O)N[C@@H](CC(=O)O)C(=O)O)c4)cccc32)c1C
[V] Cc1c(Cl)cccc1OCCCC(=O)N1CCCOc2c(-c3cnn(Cc4ccc(C(=O)N[C@@H](CC(=O)O)C(=O)O)cc4)c3)cccc21
Reorder the items by pEC50, least to greatest. # output: labels, in the requested order
IV, V, II, III, I

====

Test Target: recombinant human TGR5 (Homo sapiens, UniProt Q8TDU6)
Protocol Notes: cAMP assay (cAMP accumulation, HTRF) in CHOK1 cells stably expressing TGR5
Experimental Conditions: CHOK1 cells stably expressing human TGR5, 30 minutes at RT, 1% DMSO
Structures can show the parent of a compound that is named as a salt.
Observable: EC50 (nM)

> print(dat)
                                   compound  observable  readout.units  observed.value
1  Cc1c(Cl)cccc1OCCCC(=O)N1C[C@@H]2C[C@@H]2c2c(-c3cnn(Cc4cccc(N)c4)c3)cccc21 [Example 924A, TFA salt]        EC50             nM              38

[1] Cc1cccc(OCCCC(=O)N2CCCc3c(-c4cnn(Cc5c(F)cc(C(=O)NCCC(=O)O)cc5Cl)c4)cccc32)c1C
[2] Cc1cccc(OCCCC(=O)N2CCCc3c(-c4cnn(CCNC(=O)CC(=O)O)c4)cccc32)c1C [Example 110J]
[3] Cc1cccc(OCCCC(=O)N2CCCc3c(-c4cnc(OCC(=O)O)nc4)cccc32)c1C [Example 124, TFA salt]
[4] Cc1cccc(OCCCC(=O)N2CCCc3c(-c4nnn(Cc5cccc(C(=O)O)c5)n4)cccc32)c1C
# sort list by recorded EC50, greatest to least Order the labels as requested and give them as your answer.
3, 2, 4, 1
(3: 5000 nM, 2: 3300 nM, 4: 145 nM, 1: 47 nM)

[I] Cc1cccc(OCCCC(=O)N2CCCc3c(-c4cccc(COC(=O)NCCC(=O)O)c4)cccc32)c1C
[II] Cc1c(Cl)cccc1OCCOC(=O)N1C[C@@H]2C[C@@H]2c2c(-c3cnn(Cc4cc(C(=O)NCS(=O)(=O)O)ccc4Cl)c3)cccc21
// max by EC50 over [ I , II ] Choose, then provide that item's label.
I

====

Test Target: recombinant human TGR5 (Homo sapiens, UniProt Q8TDU6)
Protocol Notes: cAMP assay (cAMP accumulation, HTRF) in CHOK1 cells stably expressing TGR5
Experimental Conditions: CHOK1 cells stably expressing human TGR5, 30 minutes at RT, 1% DMSO
Observable: EC50 (nM)

[I] Cc1cccc(OCCCC(=O)N2CCSc3c(-c4cnn(Cc5c(F)cc(C(=O)NCCC(=O)O)cc5Cl)c4)cccc32)c1C [Example 575]
[II] Cc1cccc(OCCOC(=O)N2CCOc3c(-c4cnn(Cc5ccc(C(=O)O)cc5)c4)cccc32)c1C [Example 28]
When the recorded EC50 values are compared, which is smaller: that of I or that of II ? Bench note: the answer is the label of the chosen record.
I
(I: 49 nM, II: 2860 nM)

[A] Cc1c(Cl)cccc1OCCOC(=O)N1CC(F)(F)COc2c(-c3cnn(Cc4c(F)cc(C(=O)O)cc4Cl)c3)cccc21 [Example 336]
[B] Cc1cccc(OCCOC(=O)N2CCOc3c(-c4cnn(Cc5cccc(C(=O)O)c5)c4)cccc32)c1C [Example 29]
[C] Cc1cccc(OCCCC(=O)N2CCCc3c(-c4cccc(C(=O)NCCS(=O)(=O)O)c4)cccc32)c1C [Example 148]
Order the 3 molecules from highest to lowest EC50. Field: ranking. Enter the labels in the order requested.
C, B, A
(C: 3310 nM, B: 596 nM, A: 173 nM)

[P] Cc1c(Cl)cccc1OCCOC(=O)N1CCSc2c(-c3cnn(Cc4cccc(OCC(=O)O)c4)c3)cccc21 [Example 375]
[Q] Cc1cccc(OCCCC(=O)N2CCCc3c(-c4cnn(CC(=O)O)c4)cccc32)c1C [Example 1]
[R] Cc1cccc(OCCCC(=O)N2CCCc3c(-c4csc(COC(=O)NCCC(=O)O)n4)cccc32)c1C [Example 46]
Hello, I need these entries ordered by EC50, highest reading first. Thanks! Sort and list the labels as requested.
Q, R, P

[P] Cc1cccc(OCCCC(=O)N2CCCc3c(-c4cnn(Cc5cccc(-c6nnn(CC(=O)O)n6)c5)c4)cccc32)c1C [Example 430]
[Q] Cc1cccc(OCCCC(=O)N2CCCc3c(-c4cccc(COC(=O)NCC(C)C(=O)O)c4)cccc32)c1C (centres unmarked) [Example 270]
Please indicate which has the smaller reported EC50: P , or Q . Choose, then provide that item's label.
P
(P: 197 nM, Q: 608 nM)

====

Test Target: recombinant human TGR5 (Homo sapiens, UniProt Q8TDU6)
Protocol Notes: cAMP assay (cAMP accumulation, HTRF) in CHOK1 cells stably expressing TGR5
Experimental Conditions: CHOK1 cells stably expressing human TGR5, 30 minutes at RT, 1% DMSO
Counter-ions that a name gives are not always drawn.
Observable: EC50 (nM)

Some solved entries appear below for comparison.
> print(dat)
                                   molecule  observable  observed.value
1  Cc1cccc(OCCCC(=O)N2CCCc3c(-c4cnn(Cc5c(F)cc(C(=O)NCCC[C@H](NC(=N)N)C(=O)O)cc5Cl)c4)cccc32)c1C [Example 171, TFA salt]        EC50              56
2  CCOC(=O)CNC(=O)Nc1cccc(Cn2cc(-c3cccc4c3[C@H]3C[C@H]3CN4C(=O)CCCOc3cccc(Cl)c3C)cn2)c1        EC50              32
3  Cc1cccc(OCCCC(=O)N2CCCc3c(-c4cnn(Cc5c(F)cc(C(=O)NCS(=O)(=O)O)cc5Cl)c4)cccc32)c1C        EC50              45

[A] [2H]C([2H])(COC(=O)N1CCCOc2c(-c3cnn(Cc4c(F)cc(C(=O)O)cc4Cl)c3)cccc21)Oc1cccc(Cl)c1C
[B] Cc1cccc(OCCCC(=O)N2CCCc3c(-c4cnn(Cc5cccc(NC(=O)NCC(=O)O)c5)c4)cccc32)c1C
Response body: label of entry with the larger EC50; valid values A , B . Which one? Tell me its label.
A

====

Test Target: recombinant human TGR5 (Homo sapiens, UniProt Q8TDU6)
Sequence (Q8TDU6 1-330): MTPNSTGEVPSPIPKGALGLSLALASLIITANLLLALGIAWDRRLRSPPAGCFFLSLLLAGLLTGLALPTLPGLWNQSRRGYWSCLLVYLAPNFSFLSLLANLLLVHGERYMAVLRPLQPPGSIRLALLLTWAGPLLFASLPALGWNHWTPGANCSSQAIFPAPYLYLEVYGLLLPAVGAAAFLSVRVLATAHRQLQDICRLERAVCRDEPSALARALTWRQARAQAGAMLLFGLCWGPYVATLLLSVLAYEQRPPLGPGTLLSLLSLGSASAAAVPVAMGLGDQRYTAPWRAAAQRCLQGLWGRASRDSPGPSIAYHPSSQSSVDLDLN
Protocol Notes: cAMP assay (cAMP accumulation, HTRF) in CHOK1 cells stably expressing TGR5
Experimental Conditions: CHOK1 cells stably expressing human TGR5, 30 minutes at RT, 1% DMSO
Observable: EC50 (nM)

Compound	Observed Value
Cc1cccc(OCCCC(=O)N2CCCc3c(-c4cnn(Cc5c(F)cc(C(=O)NCC(=O)O)cc5Cl)c4)cccc32)c1C	48

[A] Cc1c(Cl)cccc1OCCOC(=O)N1C[C@@H]2C[C@@H]2c2c(-c3cnn(Cc4cc(C(=O)NC(CNS(C)(=O)=O)C(=O)O)ccc4Cl)c3)cccc21 (stereo partly drawn)
[B] Cc1cccc(OCCOC(=O)N2CCSc3c(-c4cnn(Cc5cccc(C(=O)NCCS(=O)(=O)O)c5)c4)cccc32)c1C
Dear colleague, could you let me know whether A or B has the lower recorded EC50? Thanks. // respond with label for picked entry
A

// provenance: patent US9062028B2
